Overview of reported z-score across a group of compounds:
- test-name: modulators of HCV replicon luciferase signal, primary screen, HCV replication inhibitor project, Huh7 cells, luciferase reporter (AID 1109);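 further: huh7 hepatoma cells harbouring a luciferase neomycin HCV replicon reporter; luciferase luminescence as measure of HCV replicon replication; test concentration not given here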
- test-settings: 48 h, higher = more signal
Lab note: jot down the number only; don't add units.

- compound: "[N-]=[N+]=Nc1ccccc1[C@H]1OC(c2ccc(OCCCO)cc2)=N[C@@]1(CCS(=O)(=O)c1ccccc1)C(=O)O"
  z-score: 0.86
- compound: "CC(C)NC(=O)[C@@H]1c2ccccc2C(=O)N(Cc2ccccc2Cl)[C@H]1c1ccc(CO)cc1"
  z-score: -0.657
- compound: "C=CCNC(=O)[C@@H]1[C@H]2C(=O)O[C@H](c3ccccc3)[C@H](c3ccccc3)N2[C@H](c2ccccc2OCCO)[C@@]12C(=O)Nc1ccc(C#CC3=CCCCC3)cc12"
  z-score: -3.27
- compound: "CC(C)c1ccc(NN2C(C(O)c3c(F)cccc3Cl)C=CC3C(=O)N(c4ccccc4)C(=O)C32)cc1 (stereo not drawn)"
  z-score: -0.242
- compound: "CCOC(=O)C1=CC[C@@H](c2ccccc2Cl)N(S(=O)(=O)c2ccc(C)cc2)C1"
  z-score: -2.7

Input C=C(CCCC)/C(=C/C[C@H](OC(C)=O)c1ccc(CO)o1)c1cnc2ccccc2c1 . Output z-score: -1.54

Input COc1ccc([Si](C)(C)[C@@H]2[C@@H](CCn3cc([C@H](O)c4ccccc4)nn3)O[C@]3(C(=O)N(Cc4cccc(N5CCOC5=O)c4)c4ccccc43)[C@H]2C)cc1 . Output z-score: -2.64

Input CC(C)N1C(=O)C[C@@](C(=O)NCc2ccccc2)(c2ccc([N+](=O)[O-])cc2)[C@H]1c1ccc(CO)cc1 . Output z-score: -0.0323
